- tested-system: T1, IL-18 receptors on HEK-Blue IL-18 reporter cells (UniProt Q13478 19-541; O95256 20-599, limits assumed)
- T1 sequence (looked up) 1: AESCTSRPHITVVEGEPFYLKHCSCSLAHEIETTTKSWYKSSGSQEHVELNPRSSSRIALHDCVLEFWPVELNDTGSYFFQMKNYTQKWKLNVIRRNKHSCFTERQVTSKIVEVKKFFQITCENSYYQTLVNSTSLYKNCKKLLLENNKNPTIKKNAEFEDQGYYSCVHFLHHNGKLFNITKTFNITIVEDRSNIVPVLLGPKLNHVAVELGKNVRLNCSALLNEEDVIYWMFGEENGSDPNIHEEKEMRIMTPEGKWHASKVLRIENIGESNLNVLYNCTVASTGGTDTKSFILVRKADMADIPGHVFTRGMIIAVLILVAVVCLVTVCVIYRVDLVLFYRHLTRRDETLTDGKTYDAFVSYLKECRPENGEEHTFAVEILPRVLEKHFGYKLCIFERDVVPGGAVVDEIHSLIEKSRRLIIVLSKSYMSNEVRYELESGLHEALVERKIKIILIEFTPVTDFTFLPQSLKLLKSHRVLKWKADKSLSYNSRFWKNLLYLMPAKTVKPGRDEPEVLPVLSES
- T1 sequence (looked up) 2: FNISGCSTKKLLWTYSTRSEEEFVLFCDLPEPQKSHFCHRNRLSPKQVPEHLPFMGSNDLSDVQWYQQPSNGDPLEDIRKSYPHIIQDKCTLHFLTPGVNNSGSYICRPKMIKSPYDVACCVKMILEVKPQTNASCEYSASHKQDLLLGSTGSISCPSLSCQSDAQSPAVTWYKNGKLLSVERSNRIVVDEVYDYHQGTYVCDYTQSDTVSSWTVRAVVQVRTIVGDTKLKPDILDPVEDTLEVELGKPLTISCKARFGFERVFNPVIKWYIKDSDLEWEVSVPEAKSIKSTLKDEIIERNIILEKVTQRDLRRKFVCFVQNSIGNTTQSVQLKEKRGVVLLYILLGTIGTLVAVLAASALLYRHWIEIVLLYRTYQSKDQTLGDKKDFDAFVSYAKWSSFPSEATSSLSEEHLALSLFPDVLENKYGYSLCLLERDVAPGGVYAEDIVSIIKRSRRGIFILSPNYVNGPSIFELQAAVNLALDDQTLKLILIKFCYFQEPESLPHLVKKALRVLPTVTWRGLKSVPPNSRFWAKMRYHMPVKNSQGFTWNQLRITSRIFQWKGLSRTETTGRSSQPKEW
- assay-text: cell-based or functional assay
property: Activity, No BP, DF-2500000

binder	property	measured-value
IL-18 variant G3D, E6Q, R27S, K53R, D54A, S55R, T63S, N91Q (ligand) YFDKLQSKLSVIRNLNDQVLFIDQGNSPLFEDMTDSDMRDNAPRTIFIISMYRARQPRGMAVSISVKSEKISTLSSENKIISFKEMNPPDQIKDTKSDIIFFQRSVPGHDNKMQFESSSYEGYFLASEKERDLFKLILKKEDELGDRSIMFTVQNED	Activity, No BP, DF-2500000	0.13
IL-18 variant G3Q, E6N, K53T, D54A, N91K, R104P (ligand) YFQKLNSKLSVIRNLNDQVLFIDQGNRPLFEDMTDSDMRDNAPRTIFIISMYTASQPRGMAVTISVKSEKISTLSSENKIISFKEMNPPDKIKDTKSDIIFFQPSVPGHDNKMQFESSSYEGYFLASEKERDLFKLILKKEDELGDRSIMFTVQNED	Activity, No BP, DF-2500000	0.07
IL-18 variant G3R, L5W, E6H, D54Y, Q56H, N91R (ligand) YFRKWHSKLSVIRNLNDQVLFIDQGNRPLFEDMTDSDMRDNAPRTIFIISMYKYSHPRGMAVTISVKSEKISTLSSENKIISFKEMNPPDRIKDTKSDIIFFQRSVPGHDNKMQFESSSYEGYFLASEKERDLFKLILKKEDELGDRSIMFTVQNED	Activity, No BP, DF-2500000	0.08
IL-18 variant G3L, E6Q, T63S, N91L, R104T (ligand) YFLKLQSKLSVIRNLNDQVLFIDQGNRPLFEDMTDSDMRDNAPRTIFIISMYKDSQPRGMAVSISVKSEKISTLSSENKIISFKEMNPPDLIKDTKSDIIFFQTSVPGHDNKMQFESSSYEGYFLASEKERDLFKLILKKEDELGDRSIMFTVQNED	Activity, No BP, DF-2500000	1.85
IL-18 variant K53T, D54H, S55V, T63A, N91K (ligand) YFGKLESKLSVIRNLNDQVLFIDQGNRPLFEDMTDSDMRDNAPRTIFIISMYTHVQPRGMAVAISVKSEKISTLSSENKIISFKEMNPPDKIKDTKSDIIFFQRSVPGHDNKMQFESSSYEGYFLASEKERDLFKLILKKEDELGDRSIMFTVQNED	Activity, No BP, DF-2500000	0.12
IL-18 variant G3P, E6G, D54P, S55W, N91E, R104K (ligand) YFPKLGSKLSVIRNLNDQVLFIDQGNRPLFEDMTDSDMRDNAPRTIFIISMYKPWQPRGMAVTISVKSEKISTLSSENKIISFKEMNPPDEIKDTKSDIIFFQKSVPGHDNKMQFESSSYEGYFLASEKERDLFKLILKKEDELGDRSIMFTVQNED	Activity, No BP, DF-2500000	0.07
IL-18 variant G3S, E6Q, K53N, D54T, S55N, T63A, I80T, N91S (ligand) YFSKLQSKLSVIRNLNDQVLFIDQGNRPLFEDMTDSDMRDNAPRTIFIISMYNTNQPRGMAVAISVKSEKISTLSSENKTISFKEMNPPDSIKDTKSDIIFFQRSVPGHDNKMQFESSSYEGYFLASEKERDLFKLILKKEDELGDRSIMFTVQNED	Activity, No BP, DF-2500000	0.08
